Source of measurements: ChEMBL document CHEMBL1144028

- protocol-text: Half life in Sprague-Dawley rat at 0.5 mg/kg, iv
- Format: ADME, organism-based
- Parameters: dose 0.5 mg/kg, route intravenous
- assay-conditions: in vivo
quantity-kind: half-life (min)

// known answers, use as guide
| record-smiles | half-life [min] |
| --- | --- |
| COc1cc2nccc(Oc3ccc4c(c3)OCCN4C(=O)N[C@@H](C)c3ccccc3)c2cc1OC | 138 |
| COc1cc2nccc(Oc3ccc4c(c3)OCCN4C(=O)Nc3ccc(F)cc3)c2cc1OC | 180 |
| COc1cc2nccc(Oc3ccc4c(c3)OCCN4C(=O)Nc3ccc(C)cc3)c2cc1C(N)=O | 96 |

a = COc1cc2nccc(Oc3ccc4c(c3)OCCN4C(=O)Nc3ccc(Cl)cc3)c2cc1OC
b = COc1cc2nccc(Oc3ccc4c(c3)OCCN4C(=O)Nc3ccccc3)c2cc1OC
c = COc1cc2nccc(Oc3ccc4c(c3)OCCN4C(=O)Nc3ccc(C)cc3)c2cc1OC
d = COc1cc2nccc(Oc3ccc4c(c3)OCCN4C(=O)Nc3ccc(Cl)cc3)c2cc1C(N)=O
Please produce an ascending ranking of these molecules based on half-life. Arrange the labels as the request states and list them.
b, d, c, a
